Target: T1, human IL-2Rβ (human, UniProt P14784 27-240, limits assumed)
T1 construct: Recombinant protein, coated (ELISA) or immobilised on CM5 (SPR); also called hu IL-2R; interleukin 2 receptor β-chain
T1 sequence: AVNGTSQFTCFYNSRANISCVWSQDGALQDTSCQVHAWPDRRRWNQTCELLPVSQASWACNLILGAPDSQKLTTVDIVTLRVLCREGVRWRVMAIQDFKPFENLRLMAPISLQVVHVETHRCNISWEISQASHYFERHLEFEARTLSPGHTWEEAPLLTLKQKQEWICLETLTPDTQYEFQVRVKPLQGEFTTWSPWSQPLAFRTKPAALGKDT
Experiment: SPR (Biacore), P.E. off-rate ranking
Attribute Measured: koff
Show the value, then the unit it is measured in.

Study these solved cases before continuing.
[ask] For the binder FJ1427_P035MP06B01 (VHH, soluble VHH in periplasmic extract; also called clone nr) VHH: QVQLVESGGGLVQAGGSLRLSCAASGDVFVRYTMAWFRQAPGKEREFVASVTDSGRTTDYVHSVKGRFTVSRDNAKNTVYLQMNNLKPEDTAVYYCAANTDYFQIRSLDANTWGQGTQVTVSS , give its measured koff value.
[reply] 0.0021 s⁻¹

[ask] For the binder FJ1427 P035MP03H10 (VHH, soluble VHH in periplasmic extract; also called clone nr) VHH: QVQLVESGGGLVQAGGSLRLSCAASGRTFSTTEMGWFRQAPGKEREFVAAITWTGRGTMYAESVEGRFTISRENAKNMVYLQMNSLKPEDTAIYYCAAARRGRAAVRSEGGYDFWGQGTQVTVSS , give its measured koff value.
[reply] 0.00109 s⁻¹

[ask] For the binder FJ1427_P035MP06B02 (VHH, soluble VHH in periplasmic extract; also called clone nr; 490) VHH: QVQLVESGGGLVQAGGSLRLSCVVSGDVFVRYTMAWFRQAPGKEREFVAAVTDSGRTTEYVDSVKGRFTVSRDNAKNTVYLQMNNLKPEDTAVYYCAANTDYFQIRSVDNNAWGQGTQVTVSS , give its measured koff value.
[reply] 0.000853 s⁻¹

[ask] For the binder FJ1427_P035MP06E02 (VHH, soluble VHH in periplasmic extract; also called clone nr) VHH: QVQLVESGGGLVQAGGSLRLSCAVSGDVFVRYTMAWFRQAPGKEREFVATVTDSGRTTEYVDSVKGRFTVSRDNAKNTVYLQMNNLKPEDTAVYYCAANTDYFRIRSLDANTWGQGTQVTVSS , give its measured koff value.
[reply] 0.00149 s⁻¹

[ask] For the binder FJ1427 P035MP03B10 (VHH, soluble VHH in periplasmic extract; also called clone nr) VHH: QVQLVESGGGLVQAGGSLRLSCVVSGDVFVRYTMAWFRQAPGKEREFVAVVTDSGRTTEYVDSVKGRFTVSRDNAKNTVYLQMNNLKPEDTAVYYCAANTDYFQIRSVDNNAWGQGTQVTVSS , give its measured koff value.
[reply] 0.000707 s⁻¹

[ask] For the binder FJ1427_P035MP06H01 (VHH, soluble VHH in periplasmic extract; also called clone nr) VHH: EVQLVESGGGLVQAGGSLRLSCAVSGDVFVRYTMAWFRQAPGKEREFVASVTDSGRTTDYVHSVKGRFTVSRDNAKNTVYLQMNNLKPEDTAVYYCAANTDYFQIKSLDANTWGQGTQVTVSS , give its measured koff value.
[reply] 0.00101 s⁻¹

[ask] For the binder FJ1427 P035MP03B01 (VHH, soluble VHH in periplasmic extract; also called clone nr) VHH: QVQLVESGGGLVQAGGSLRLSCAASGFTFSNYAMSWVRQAPGKGLEWVSSITGFGRGTDYADSVKGRFTISRDNAKNTLYLQMNSLKPEDTAVYYCARYSSSTYYPPTPARGTDYRGQGTQVTVSS , give its measured koff value.
[reply] 0.0011 s⁻¹

Alright, here's another binder for you.
[ask] For the binder FJ1427 P035MP03E01 (VHH, soluble VHH in periplasmic extract; also called clone nr) VHH: QVQLVESGGGLVQAGGSLRLSCAASGGTFSSYAMGWFRQAPGKEREFVAATTRGGGRTMYAVSTEGRFTCSRDNAKNTVYLLMNSLKPEDTAVYYCAAMTSYYSGTYYPDSSDFDIWGQGTQVTVSS , give its measured koff value.
[reply] 0.000323 s⁻¹
